Answer each item with its documented hGIPR cAMP EC50 ratio.
Molecular target: T1, human gastric inhibitory peptide receptor (GIPR) (human, UniProt P48546 22-466); note: reference of the scale not given here
T1 sequence (looked up): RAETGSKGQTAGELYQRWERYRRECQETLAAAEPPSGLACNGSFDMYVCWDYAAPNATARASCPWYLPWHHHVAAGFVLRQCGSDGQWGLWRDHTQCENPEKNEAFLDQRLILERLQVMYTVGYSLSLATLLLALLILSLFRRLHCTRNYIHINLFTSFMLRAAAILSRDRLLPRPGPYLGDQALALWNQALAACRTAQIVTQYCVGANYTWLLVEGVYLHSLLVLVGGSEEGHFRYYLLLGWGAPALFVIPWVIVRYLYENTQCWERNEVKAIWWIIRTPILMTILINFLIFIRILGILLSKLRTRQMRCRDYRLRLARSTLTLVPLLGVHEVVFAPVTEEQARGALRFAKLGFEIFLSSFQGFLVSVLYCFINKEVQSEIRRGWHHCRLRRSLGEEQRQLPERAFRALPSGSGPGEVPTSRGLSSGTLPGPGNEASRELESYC
Assay: cell-based or functional assay
// no unit, no text: just the number

Value of hGIPR cAMP EC50 ratio reported for the binder YXEGTFTSDYSIXLDKKAQXEFIEYLIEGGPSSGAPPPS (not fully specified; Aib2, αMeL13, (2-[2-(2-Amino-ethoxy)-ethoxy]-acetyl)2-(γ-Glu)-CO-(CH2)18-CO2H on K17, Aib20, C-terminal NH2) [Example 333] is 2.31

Value of hGIPR cAMP EC50 ratio reported for the binder XXEGTFTSDYSIXLDXKAQXAFVEYLIAGGPSSGAPPPS (D-Tyr1, Aib2, αMeL13, Orn16, (2-[2-(2-Amino-ethoxy)-ethoxy]-acetyl)2-(γ-Glu)-CO-(CH2)18-CO2H on K17, Aib20, C-terminal NH2) [Example 358] is 0.662

Value of hGIPR cAMP EC50 ratio reported for the binder FXEGTFTSDYSIXLDKKAQXAFIEYLIEAGPSSGAPPPS (Aib2, αMeL13, (2-[2-(2-Amino-ethoxy)-ethoxy]-acetyl)2-(γ-Glu)-CO-(CH2)16-CO2H on K17, Aib20, C-terminal NH2) [Example 328] is 0.94

Value of hGIPR cAMP EC50 ratio reported for the binder YXEGTFTSDYSIXLDEKAQXDFIEYLIAGGPSSGAPPPS (Aib2, αMeL13, (2-[2-(2-Amino-ethoxy)-ethoxy]-acetyl)2-(γ-Glu)-CO-(CH2)18-CO2H on K17, Aib20, C-terminal NH2) [Example 344] is 1.79

Value of hGIPR cAMP EC50 ratio reported for the binder XXEGTFTSDYSIXLDKKAQXEFIXYLIEGGPSSGAPPPS (D-Tyr1, Aib2, αMeL13, (2-[2-(2-Amino-ethoxy)-ethoxy]-acetyl)2-(γ-Glu)-CO-(CH2)18-CO2H on K17, Aib20, D-Glu24, C-terminal NH2) [Example 353] is 0.145

Value of hGIPR cAMP EC50 ratio reported for the binder XXEGTFTSDYSIXLDKKAQXAFIEYLIAGGPSSGAPPPS (not fully specified; D-Tyr1, Aib2, αMeL13, (2-[2-(2-Amino-ethoxy)-ethoxy]-acetyl)2-(γ-Glu)-CO-(CH2)18-CO2H on K17, Aib20, C-terminal NH2) [Example 340] is 0.852
